Assay: Urine pharmacokinetics (Ae0–24, CLR) after a single oral dose of rucaparib 600 mg in patients with advanced solid tumors
Assay type: in vivo, human
Details: human, urine, po, 600 mg, NCI-ODWG normal hepatic function; single oral rucaparib 600 mg; read-out: CLR, Median (min–max)
assay_metric: CL renal (mL/min)

{"smiles": "CNCc1ccc(-c2[nH]c3cc(F)cc4c3c2CCNC4=O)cc1", "obs_value": 56.1}

----------
Experiment: Plasma pharmacokinetics after a single oral dose of rucaparib 600 mg in patients with advanced solid tumors, by hepatic function group
Details: human, plasma, po, 600 mg, tmax, Median (min–max), Child–Pugh severe hepatic impairment; single oral rucaparib 600 mg
assay_metric: Tmax

{"smiles": "CNCc1ccc(-c2[nH]c3cc(F)cc4c3c2CCNC4=O)cc1", "assay_metric": "Tmax", "obs_value": "4.49 h"}
